These entries and their values trace back to ChEMBL document CHEMBL1137931.

Test: Therapeutic index expressed as IC50/EC50
Settings: read-out: TI

>  <Molecule>
Cc1cc(=O)sc2c3c(ccc12)OCC=C3

>  <selectivity ratio>
62.3

$$$$
>  <Molecule>
Cc1cc(=O)sc2c3c(ccc12)OC[C@H](O)[C@@H]3O

>  <selectivity ratio>
11.1

$$$$
>  <Molecule>
CC1(C)Oc2ccc3ccc(=O)oc3c2[C@@H](OC(=O)C23CCC(C)(C(=O)O2)C3(C)C)[C@H]1OC(=O)C12CCC(C)(C(=O)O1)C2(C)C (some centres undefined)

>  <selectivity ratio>
137000

$$$$
>  <Molecule>
Cc1cc(=O)sc2c3c(ccc12)OC[C@H](OC(=O)C12CCC(C)(C(=O)O1)C2(C)C)[C@@H]3OC(=O)C12CCC(C)(C(=O)O1)C2(C)C (some centres undefined)

>  <selectivity ratio>
62.3

$$$$
